Assay: Pharmacokinetic interaction study between SOR and DAPA in rats (oral gavage, plasma by UPLC-MS/MS)
Conditions: male, Sprague-Dawley, rat, in vivo, po, 1 mg/kg, AUC0–∞, DAPA 1 mg/kg oral with multiple-doses SOR (100 mg/kg, seven days), n = 6
attribute.measured: AUC(0-inf) (ng·h/mL)
Enter your answer as a number in ng·h/mL; do not include the unit.

Returns the measured AUC(0-inf) for the input compound. Input: CCOc1ccc(Cc2cc([C@@H]3O[C@H](CO)[C@@H](O)[C@H](O)[C@H]3O)ccc2Cl)cc1
9300

----------
Assay: Pharmacokinetic interaction study between SOR and DAPA in rats (oral gavage, plasma by UPLC-MS/MS);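 note: parameters derived by non-compartmental analysis of plasma concentration–time data, with analyte levels measured by UPLC-MS/MS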
Details: male, Sprague-Dawley, rat, in vivo, po, 1 mg/kg, AUC0-t, DAPA 1 mg/kg oral, alone, n = 6
attribute.measured: AUC(0-t) (ng·h/mL)
State just the number; it will be interpreted in ng·h/mL.

Requested read-out: AUC(0-t). Entry: CCOc1ccc(Cc2cc([C@@H]3O[C@H](CO)[C@@H](O)[C@H](O)[C@H]3O)ccc2Cl)cc1
5160
